Please provide measured composite z-score for the entries that follow.
- Tested on: Lefty1
- MEASUREMENT NOTES: Lefty1 binders on small-molecule microarrays, primary screen, biochemical, small-molecule microarray, 635/667 nm fluorescence (AID 1139)
- MEASUREMENT SETUP: small-molecule microarray binding, fluorescence 635/667; higher = more signal
One number for each entry.

Look up composite z-score for this compound: CCOc1cc(C(O)C2C=CC3C(=O)N(C4CCCCC4)C(=O)C3N2Nc2ccc(OC)cc2)ccc1O (stereo not drawn)
0.225

Field request: composite z-score | item: CC(C)(C)OC(=O)CC[C@@]1(C(=O)O)N=C(c2ccc(OCCCO)cc2)O[C@@H]1c1ccccc1CN=[N+]=[N-]
-0.816

Continue with the compound presented below.
Find the recorded composite z-score belonging to CCOc1cc(C(O)C2C=CC3C(=O)N(C)C(=O)C3N2N2CCCCC2)ccc1O (stereo not drawn) and report it.
0.192

====

- MEASUREMENT NOTES: adipocyte viability effects, profiling panel, cell-based, 3T3-L1 adipocytes, calcein-AM fluorescence, 48 h, basal (AID 1163); further: test concentration not given here
- MEASUREMENT SETUP: 3T3-L1 adipocytes viability, higher = more signal
I'd be grateful if you could share measured z-score for these entries.
Numbers only.

# annotated cases, reported z-score shown
z-score for CN(C)CCCCNC(=O)[C@H]1C[C@H]2C(=O)N3CCC[C@H]3C(=O)N2[C@H]1c1ccc(O)cc1 ?
0.862

For the compound shown here, COc1ccc([Si](C)(C)[C@H]2[C@H](CC(=O)N3Cc4ccccc4C[C@H]3CO)O[C@@]3(C(=O)N(Cc4cccc(N5CCCCC5=O)c4)c4ccccc43)[C@@H]2C)cc1 , give the reported z-score.
0.785

Which z-score value belongs to CN1C(=O)C2C=CC(C(O)C3CCCCC3)N(N3CCCCC3)C2C1=O (stereo not given) ?
-0.52

Entry O=C(CCCCCCC(=O)Nc1ccccc1)N/N=C/c1ccccc1 : reported z-score = ?
0.194

Which z-score value is on record for COc1ccc([Si](C)(C)[C@@H]2[C@@H](CC(=O)N3CCC[C@H]3CO)O[C@]3(C(=O)N(Cc4ccc(N5C(=O)c6cccc7cccc5c67)cc4)c4ccccc43)[C@H]2C)cc1 ?
1.43

Endpoint output: z-score of O=C1OCCC=C[C@H]2OC34C=CCN(c5ccc(Cl)cc5)C(=O)[C@H]3N(CCCCCO)C(=O)[C@@H]4C12 (stereo not given in full) . Value?
0.0279

What does the record list as z-score for COC(=O)C[C@H]1O[C@]2(C(=O)N(C)c3ccccc32)[C@@H](C)[C@@H]1[Si](C)(C)c1ccc(C)cc1 ?
0.163

Please report the recorded z-score for CN(C)C(=O)[C@@]1(Cc2ccccc2N=[N+]=[N-])COC(c2ccc(OCCCO)cc2)=N1 .
-0.541

For every item below, please supply its z-score.
1. CCN(CC)c1ccc(N2CC=CC34O[C@@H]5/C=C\CCC(C)OC(=O)C5[C@H]3C(=O)N(CCO)[C@@H]4C2=O)cc1 (stereo not given in full)
2. O=C(CS)NCCCCCCNC(=O)[C@H]1C[C@H]2C(=O)N[C@@H](Cc3ccccc3)C(=O)N2[C@H]1c1cccc(OCCO)c1
3. CN(C)CCCN1C(=O)[C@@]2(c3ccc([N+](=O)[O-])cc3)CC(=O)N(CC34CC5CC(CC(C5)C3)C4)[C@@H]2c2ccc(CO)cc21

0.879
-0.154
0.338

# return z-score for each item in the list
1. CN1C(=O)C2C=CC(C(O)Cc3ccccc3)N(N(c3ccccc3)c3ccccc3)C2C1=O (stereo not given)
2. CCOC(=O)C[C@H]1[C@H](OC(=O)Cc2ccc3c(c2)OCO3)[C@@H](NC(=O)Cc2ccc(OC)cc2)c2cc(OCCCO)ccc2N1C(=O)c1ccccc1
3. CN(C)CCCNC(=O)[C@@H]1c2ccccc2C(=O)N(Cc2ccc(OC(F)(F)F)cc2)[C@H]1c1ccc(CO)cc1
4. COc1cc(OC)c(C(O)C2C=CC3C(=O)N(c4ccccc4)C(=O)C3N2Nc2ccc(C#N)cc2)cc1Br (stereo not given)
5. COc1ccc(C#Cc2ccc3c(c2)[C@]2(C(=O)N3)[C@H](C(=O)N3CCc4cc(OC)c(OC)cc4C3)[C@H]3C(=O)O[C@H](c4ccccc4)[C@H](c4ccccc4)N3[C@@H]2c2ccc(O)cc2)cc1
6. NCCCCCCNC(=O)[C@H]1C[C@H]2C(=O)N[C@@H](Cc3ccccc3)C(=O)N2[C@H]1c1ccc(O)cc1
7. CC(C)CNC(=O)[C@@H]1c2ccccc2C(=O)N(Cc2cc(F)cc(C(F)(F)F)c2)[C@H]1c1ccc(CO)cc1
8. [N-]=[N+]=NCc1ccccc1C[C@@]1(C(=O)N2CCCCC2)N=C(c2ccc(OCCCO)cc2)O[C@@H]1c1ccccc1N=[N+]=[N-]

-1.5
-0.0437
1.91
-0.693
-0.163
0.565
-0.979
1.03

Which value of z-score has been reported for CCOC(=O)[C@@H]1[C@@H]2C(=O)N(CC)C(=O)[C@@H]2C[C@@H]1Sc1ccccc1 in the records?
-1.04
